# measured.target: Zcchc11 enzyme (Homo sapiens)
# Construct: made in house; host or cells: HEK293 cells (Zcchc11); E. coli Rosetta II (LIN28A)
# Sequence (Q5TAX3 212-1420): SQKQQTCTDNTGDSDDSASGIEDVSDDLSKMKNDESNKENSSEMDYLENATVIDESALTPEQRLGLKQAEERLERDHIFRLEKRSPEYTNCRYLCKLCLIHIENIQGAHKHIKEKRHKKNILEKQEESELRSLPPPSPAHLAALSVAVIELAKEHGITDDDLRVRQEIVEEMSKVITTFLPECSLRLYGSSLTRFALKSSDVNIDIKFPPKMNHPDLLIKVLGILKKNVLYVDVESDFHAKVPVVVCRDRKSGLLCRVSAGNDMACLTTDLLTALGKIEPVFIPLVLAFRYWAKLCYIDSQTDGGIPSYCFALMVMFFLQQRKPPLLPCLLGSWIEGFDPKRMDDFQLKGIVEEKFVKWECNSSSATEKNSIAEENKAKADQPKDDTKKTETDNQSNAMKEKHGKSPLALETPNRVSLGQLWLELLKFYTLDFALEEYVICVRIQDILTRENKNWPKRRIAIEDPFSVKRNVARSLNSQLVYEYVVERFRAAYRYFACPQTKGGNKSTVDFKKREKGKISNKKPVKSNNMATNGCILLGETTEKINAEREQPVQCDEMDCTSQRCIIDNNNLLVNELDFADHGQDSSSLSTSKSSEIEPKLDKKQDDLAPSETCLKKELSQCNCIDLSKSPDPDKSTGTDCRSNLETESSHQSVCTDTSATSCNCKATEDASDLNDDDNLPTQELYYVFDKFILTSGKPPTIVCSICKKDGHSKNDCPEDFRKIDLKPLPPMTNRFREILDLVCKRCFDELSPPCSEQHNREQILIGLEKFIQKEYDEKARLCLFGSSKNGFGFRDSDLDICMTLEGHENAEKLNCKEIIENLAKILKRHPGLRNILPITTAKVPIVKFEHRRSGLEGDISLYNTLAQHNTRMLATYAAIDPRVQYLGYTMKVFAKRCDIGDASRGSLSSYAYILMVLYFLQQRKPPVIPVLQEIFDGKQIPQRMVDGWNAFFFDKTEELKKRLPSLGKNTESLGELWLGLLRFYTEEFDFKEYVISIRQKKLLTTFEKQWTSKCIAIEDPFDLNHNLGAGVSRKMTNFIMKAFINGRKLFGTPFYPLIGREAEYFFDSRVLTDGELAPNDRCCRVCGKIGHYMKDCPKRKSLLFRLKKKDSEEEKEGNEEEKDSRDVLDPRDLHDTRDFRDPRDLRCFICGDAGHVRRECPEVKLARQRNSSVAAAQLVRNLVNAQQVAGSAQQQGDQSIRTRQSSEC
# assay: TUTase assay (Zcchc11 assay, Lin28a-dependent polyuridylation of pre-let-7)
# Format: biochemical
# experimental.parameters: Lin28a-dependent Zcchc11 (Z11) TUTase activity; read-out: Potency Lin28a-dep Z11 IC50
pIC50: −log10 of the molar value.
quantity.kind: pIC50

- O=C(O)c1cn(-c2ccc(O)cc2C(F)(F)F)c2cc(N3CCC[C@@H]3COc3ccccn3)c(F)cc2c1=O [Compound 164]: 4.30 to 5.00
- CN(C)C1CN(c2ccc(-n3cc(C(=O)O)c(=O)c4cc(Cl)c(N5CCC[C@@H]5COc5nc6c(cc5Cl)ncn6C)cc43)cn2)C1 (racemic) [Compound 274]: ≥ 6.00
- CN(C)c1ccc(Cl)c(OC[C@H]2CCCN2c2cc3c(cc2Cl)c(=O)c(C(=O)O)cn3-c2ccc(N3CC(N(C)C)C3)nc2)n1 [Compound 350]: ≥ 6.00
- O=C(O)c1cn(-c2ccccc2)c2cc(N3CCC[C@@H]3COc3ncccc3C(F)(F)F)c(F)cc2c1=O [Compound 100]: ≥ 6.00
- CN(C)C1CN(c2ccc(-n3cc(C(=O)O)c(=O)c4cc(F)c(N5C[C@@H](c6cccnc6)C[C@@H]5COc5ncccc5Cl)cc43)cn2)C1 (single isomer, unassigned) [Compound 329]: ≥ 6.00
- O=C(O)c1cn(-c2cnccn2)c2nc(N3CCC[C@@H]3COc3nnccc3Cl)c(Cl)cc2c1=O (racemic) [Compound 193]: 5.00 to 6.00

---

# IC50 listing for each entry below
# measured.target: Zcchc11 enzyme (Homo sapiens, UniProt Q5TAX3)
# Construct: made in house; host or cells: HEK293 cells (Zcchc11); E. coli Rosetta II (LIN28A)
# assay: TUTase assay (Zcchc11 assay, Lin28a-dependent polyuridylation of pre-let-7)
# Format: biochemical
# experimental.parameters: Lin28a-dependent Zcchc11 (Z11) TUTase assay; read-out: Potency Lin28a-dep Z11 IC50
quantity.kind: IC50

- CN(C)C1CN(c2ccc(-n3cc(C(=O)O)c(=O)c4cc(F)c(N5CCC[C@@H]5COc5ncccc5Cl)c(F)c43)cn2)C1: ≤ 1 µM
- Nc1cc(-n2cc(C(=O)O)c(=O)c3cc(Cl)c(N4CCC[C@@H]4COc4ncccc4Cl)cc32)ccn1: ≤ 1 µM
- CN(C)CCNc1cnc(-n2cc(C(=O)O)c(=O)c3cc(Cl)c(N4CCC[C@@H]4COc4ncccc4Cl)cc32)cn1: ≤ 1 µM
- O=C(O)c1cn(Cc2cn[nH]c2)c2cc(N3CCC[C@@H]3COc3ncccc3Cl)c(Cl)cc2c1=O: 1 to 10 µM
- CN(C)C1CN(c2ccc(-n3cc(C(=O)O)c(=O)c4cc(Cl)c(N5CCC[C@@H]5C[S+]([O-])c5ncccc5Cl)cc43)cn2)C1 (some centres unmarked): 1 to 10 µM
- CN(C)C1CN(c2ccc(-n3cc(C(=O)O)c(=O)c4cc(Br)c(N5CCC[C@@H]5COc5ncccc5Cl)cc43)cn2)C1: ≤ 1 µM
- Cn1cc(Cn2cc(C(=O)O)c(=O)c3cc(Cl)c(N4CCC[C@@H]4COc4ncccc4Cl)cc32)cn1: ≤ 1 µM
- COCc1ccccc1-n1cc(C(=O)O)c(=O)c2cc(F)c(N3CCC[C@@H]3COc3ccccn3)cc21: 1 to 10 µM
- CN(C)C1CN(c2ccc(-n3cc(C(=O)O)c(=O)c4cc(F)c(N5C[C@@H](F)C[C@@H]5COc5ncccc5F)cc43)cn2)C1: ≤ 1 µM
- CCc1cc2c(=O)c(C(=O)O)cn(-c3ccc(N4CC(N(C)C)C4)nc3)c2cc1N1CCC[C@@H]1COc1ncccc1Cl: ≤ 1 µM
- COc1ccc(-n2cc(C(=O)O)c(=O)c3cc(Cl)c(N4CCC[C@@H]4COc4ncccc4Cl)cc32)cn1: ≤ 1 µM
- O=C(O)c1cn(-c2ccc(CO)nc2)c2cc(N3CCC[C@@H]3COc3ncccc3Cl)c(Cl)cc2c1=O: ≤ 1 µM
- O=C(O)c1cn(-c2ccc(C3(O)CNC3)nc2)c2cc(N3CCC[C@@H]3COc3ncccc3Cl)c(Cl)cc2c1=O: ≤ 1 µM
- CN(C)C1CN(c2ccc(-n3cc(C(=O)O)c(=O)c4cc(Cl)c(N5C[C@@H](O)C[C@@H]5COc5ncccc5Cl)cc43)cn2)C1: ≤ 1 µM

---

# Lookup of reported IC50 keyed by entry
# measured.target: Zcchc11 enzyme (Homo sapiens, UniProt Q5TAX3)
# Construct: made in house; host or cells: HEK293 cells (Zcchc11); E. coli Rosetta II (LIN28A)
# assay: TUTase assay (Zcchc11 assay, Lin28a-dependent polyuridylation of pre-let-7)
# Assay type: biochemical
# experimental.parameters: Lin28a-dependent Zcchc11 (Z11) TUTase activity; read-out: Potency Lin28a-dep Z11 IC50
quantity.kind: IC50

* Nc1ccc(-n2cc(C(=O)O)c(=O)c3cc(F)c(N4CCC[C@@H]4COc4ncccc4Cl)cc32)cn1 [Compound 317] | ≤ 1000 nM
* COc1ccc(Cl)c(OC[C@H]2C[C@@H]3C[C@@H]3N2c2cc3c(cc2F)c(=O)c(C(=O)O)cn3-c2ccnc(N)c2)n1 (racemic) [Compound 230] | ≤ 1000 nM
* O=C(O)c1cn(-c2ccc3c(c2)CNC3)c2cc(N3CCC[C@@H]3COc3ncccc3Cl)c(Cl)cc2c1=O [Compound 236] | ≤ 1000 nM
* COc1ccc(Cl)c(OC[C@H]2C[C@H]3C[C@H]3N2c2cc3c(cc2Cl)c(=O)c(C(=O)O)cn3-c2ccc(N(C)C)nc2)n1 [Compound 341] | ≤ 1000 nM
* CN(C)C1CN(c2ccc(-n3cc(C(=O)O)c(=O)c4cc(Cl)c(N5CC(c6cccnn6)C[C@@H]5COc5ncccc5Cl)cc43)cn2)C1 (mixture of isomers) [Compound 307] | ≤ 1000 nM
* N#Cc1cc2c(=O)c(C(=O)O)cn(-c3ccc(N)nc3)c2cc1N1CCC[C@@H]1COc1ncccc1F [Compound 217] | ≤ 1000 nM
* O=C(O)c1cn(-c2ccc(O)cc2)c2cc(N3CCC[C@@H]3COc3nccc4cc[nH]c34)c(F)cc2c1=O [Compound 117] | ≤ 1000 nM
* Cc1ccnc(OC[C@H]2CCCN2c2cc3c(cc2F)c(=O)c(C(=O)O)cn3-c2ccccc2)c1 [Compound 94] | ≤ 1000 nM
* Cn1cc(-n2cc(C(=O)O)c(=O)c3cc(C#N)c(N4CCC[C@@H]4COc4ncccc4F)nc32)cn1 (racemic) [Compound 183] | 1000 to 10000 nM
* Cc1cccnc1OC[C@H]1CCCN1c1cc2c(cc1F)c(=O)c(C(=O)O)cn2-c1ccc(N)nc1 [Compound 208] | ≤ 1000 nM
* CN(C)C1CN(c2ccc(-n3cc(C(=O)O)c(=O)c4cc(C#N)c(N5CCC[C@@H]5COc5ncccc5Cl)nc43)cn2)C1 [Compound 250] | ≤ 1000 nM
* COc1ccnc(OC[C@H]2C[C@H]3C[C@H]3N2c2cc3c(cc2Cl)c(=O)c(C(=O)O)cn3-c2ccc(N(C)C)nc2)c1Cl [Compound 267] | ≤ 1000 nM
* CN(C)C1CN(c2ccc(-n3cc(C(=O)O)c(=O)c4cc(F)c(N5CC(c6ccc(O)nc6)C[C@@H]5COc5ncccc5Cl)cc43)cn2)C1 (mixture of isomers) [Compound 189] | ≤ 1000 nM
* COc1ccc(COc2ccc(-n3cc(C(=O)O)c(=O)c4cc(F)c(N5CCC[C@@H]5COc5ccncn5)cc43)c(F)c2)cc1 [Compound 139] | ≤ 1000 nM
* O=C(O)c1cn(-c2cnccn2)c2cc(N3CCC[C@@H]3COc3ncccc3F)c(F)cc2c1=O (racemic) [Compound 174] | ≤ 1000 nM
* Cc1cccnc1OC[C@H]1CCCN1c1cc2c(cc1F)c(=O)c(C(=O)O)cn2-c1ccc(O)c(Cl)c1 [Compound 122] | ≤ 1000 nM
* CN(C)C1CN(c2ccc(-n3cc(C(=O)O)c(=O)c4cc(F)c(N5CC(c6cccnc6)C[C@@H]5COc5ncccc5Cl)cc43)cn2)C1 (single isomer, unassigned) [Compound 328] | ≤ 1000 nM
* O=C(O)c1cn(-c2cnn(C3CN(CC(F)(F)F)C3)c2)c2cc(N3CCC[C@@H]3COc3ncccc3Cl)c(Cl)cc2c1=O [Compound 239] | ≤ 1000 nM
* O=C(O)c1cn(-c2cnccn2)c2cc(N3CCC[C@@H]3COc3ncccc3Cl)c(F)cc2c1=O [Compound 240] | ≤ 1000 nM
* CC1C[C@H](COc2ncccc2Cl)N(c2cc3c(cc2F)c(=O)c(C(=O)O)cn3-c2ccc(N3CC(N(C)C)C3)nc2)C1 (some centres unmarked) [Compound 330] | ≤ 1000 nM
* COc1ccc(Cl)c(OCC23CC(CN2c2cc4c(cc2Cl)c(=O)c(C(=O)O)cn4-c2ccc(N)nc2)C3)n1 [Compound 176] | 1000 to 10000 nM
* COc1ccc(Cl)c(OCC2N(c3cc4c(cc3Cl)c(=O)c(C(=O)O)cn4-c3ccc(N4CC(N(C)C)C4)nc3)CCC2(C)C)n1 (centres unmarked) [Compound 257] | ≤ 1000 nM
* O=C(O)c1cn2c3cc(c(F)cc3c1=O)N1CCC[C@@H]1COc1ncccc1OCCOc1ccc-2cc1 (racemic) [Compound 312] | > 50000 nM
* COc1ccc(Cl)c(OCC23CC(CN2c2cc4c(cc2Cl)c(=O)c(C(=O)O)cn4-c2ccc(N4CC(N(C)C)C4)nc2)C3)n1 [Compound 258] | 1000 to 10000 nM
* CN(C)C1CN(c2ccc(-n3cc(C(=O)O)c(=O)c4cc(F)c(N5C6CC6C[C@@H]5COc5nc6c(ccn6C)cc5Cl)cc43)cn2)C1 (some centres unmarked) [Compound 334] | ≤ 1000 nM
* CN(C)C1CN(c2ccc(-n3cc(C(=O)O)c(=O)c4ccc(N5C(=O)CC[C@@H]5COc5ncccc5Cl)cc43)cn2)C1 [Compound 249] | 1000 to 10000 nM
